Target: T1, rat NGF (rat, UniProt P25427 122-241)
T1 construct: also called rN
T1 sequence (P25427 122-241 limits assumed): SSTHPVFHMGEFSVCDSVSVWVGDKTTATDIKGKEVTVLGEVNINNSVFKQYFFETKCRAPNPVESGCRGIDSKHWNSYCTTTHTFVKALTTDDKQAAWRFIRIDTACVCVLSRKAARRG
Protocol details: SPR (Biacore T200), 100 nM mAb on NGF chip, similarity to parent mAb
From the text: The region of an antibody responsible for antigen recognition represents the paratope. A paratope is created by a combination of amino acids in the complementarity determining regions (CDRs) of both the heavy and light chain variable regions. The binding between antibody and antigen is often mediated by side chains of CDR residues with side chains or carbohydrate moieties of the antigen. […]
So I've got a bunch of binders here, and I need their Percent Similarity Score (KD on rN) values.
One number for each entry, in %.

For every record below, what is its Percent Similarity Score (KD on rN)?
1. can9L12VH_G26A (antibody, V domains shown) VH: EVQLVESGGDLVKPGGSLRLSCVASAFTFSSHGMHWVRQSPGKGLQWVAVINSGGSSTYYTDAVKGRFTISRDNAKNTVYLQMNSLRAEDTAMYYCAKESVGGWEQLVGPHFDYWGQGTLVIVSS VL: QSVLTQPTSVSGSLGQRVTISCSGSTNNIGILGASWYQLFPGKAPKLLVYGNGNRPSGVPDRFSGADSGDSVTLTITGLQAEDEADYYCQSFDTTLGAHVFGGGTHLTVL
2. can48L2VL_S94A (antibody, V domains shown, CDR scanning mutant of ZTS-842 (48L2)) VH: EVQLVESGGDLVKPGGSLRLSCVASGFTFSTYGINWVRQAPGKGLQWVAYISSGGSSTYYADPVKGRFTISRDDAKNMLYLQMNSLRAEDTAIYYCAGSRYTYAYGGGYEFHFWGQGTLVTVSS VL: QAVLNQPASVSGALGQKVTISCSGSTMDIDIFGVSWYQQLPGKAPKLLVDSDGDRPSGIPDRFSGSRSGNSGTLTITGLQAEDEADYHCQSGDATLGALAIFGGGTHVTVL
3. can9L12VL_N27A (antibody, V domains shown) VH: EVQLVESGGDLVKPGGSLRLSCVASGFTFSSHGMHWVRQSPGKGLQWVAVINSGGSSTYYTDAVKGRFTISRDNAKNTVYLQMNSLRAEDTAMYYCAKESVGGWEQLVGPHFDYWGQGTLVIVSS VL: QSVLTQPTSVSGSLGQRVTISCSGSTANIGILGASWYQLFPGKAPKLLVYGNGNRPSGVPDRFSGADSGDSVTLTITGLQAEDEADYYCQSFDTTLGAHVFGGGTHLTVL
4. can48L2VL_D30A (antibody, V domains shown, CDR scanning mutant of ZTS-842 (48L2)) VH: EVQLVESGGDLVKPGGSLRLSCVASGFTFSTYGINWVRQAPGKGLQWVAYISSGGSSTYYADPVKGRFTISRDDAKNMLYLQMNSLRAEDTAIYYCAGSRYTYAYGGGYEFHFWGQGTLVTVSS VL: QAVLNQPASVSGALGQKVTISCSGSTMDIAIFGVSWYQQLPGKAPKLLVDSDGDRPSGIPDRFSGSRSGNSGTLTITGLQAEDEADYHCQSGDSTLGALAIFGGGTHVTVL
5. can48L2VL_G33A (antibody, V domains shown, CDR scanning mutant of ZTS-842 (48L2)) VH: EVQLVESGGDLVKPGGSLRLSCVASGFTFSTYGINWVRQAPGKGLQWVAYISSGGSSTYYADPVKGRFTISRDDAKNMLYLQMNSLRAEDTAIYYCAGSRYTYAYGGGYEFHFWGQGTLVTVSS VL: QAVLNQPASVSGALGQKVTISCSGSTMDIDIFAVSWYQQLPGKAPKLLVDSDGDRPSGIPDRFSGSRSGNSGTLTITGLQAEDEADYHCQSGDSTLGALAIFGGGTHVTVL

## Result
94.8
99.3
99.9
98.7
21.2
